Tested on: PXR homodimer (NR concentration 270 nM)
method: PBM binding z-score (relative to random genomic background probes); higher = stronger binding; sequences stand for … in GC…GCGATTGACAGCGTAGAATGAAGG
measurement.type: PBM binding z-score
Give your answer as a number; write no unit.

Sample answers from the record:
1) GCAGACAGGTGAAACGCAGGTAATTCAGGGTGGC :: -0.351
2) ATCTCTAGGTAACCAAGTTCAGTGAGTGCCGAAC :: 3.09
3) ACTAGCAGGCCAAGTTTGGGTCACGCAAACAAAG :: -0.0621
4) TCTCTGAGGACACGAAGGTCAGAGCTTTCCAGAG :: 1.25
5) CCTCGGAGGACAGAGGGTCAGAGCTGTCCGCTTT :: -0.49

Now look at this one.
Data request: For CTCGAAAGTTCGGTTGAGGTGAGTATACGGATAA , what is its reported PBM binding z-score?
Data returned: 0.236

* * *

System: PPARg:RXRa IVT, anti-PPARg (NR concentration 270 nM, RXRa partner concentration 90 nM)
method: PBM binding z-score (relative to random genomic background probes); higher = stronger binding; sequences stand for … in GC…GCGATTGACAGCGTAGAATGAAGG
The sequences listed here are annotated with their PBM binding z-score.
Give your answer as a number; write no unit.

1. ACACACAGGTGATGAAGGTAACTCAGGCTATCAT :: 1.02

Data request: Form: Entry = TGTATGAGGTTATAAGATCAGGGAACGTTGCAAA | System = PPARg:RXRa IVT, anti-PPARg (NR concentration 270 nM, RXRa partner concentration 90 nM) | PBM binding z-score = ____
Data returned: 0.98

Data request: Form: Entry = TCTATTAGTTGGAGGGCAACCGACGAGTCCGTTT | System = PPARg:RXRa IVT, anti-PPARg (NR concentration 270 nM, RXRa partner concentration 90 nM) | PBM binding z-score = ____
Data returned: 0.996

* * *

Test system: RARb:RXRa (NR concentration 270 nM, RXRa partner concentration 90 nM)
method: PBM binding z-score (relative to random genomic background probes); higher = stronger binding; sequences stand for … in GC…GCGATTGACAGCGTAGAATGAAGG
The sequences listed here are annotated with their PBM binding z-score.
Give your answer as a number; write no unit.

Sample answers from the record:
1. CCTGCTAGGTCAATGGGCAGCTAAAGCAGCTCGC :: 3.6
2. CGAACGAGGGCCTGAGTTGATAGCAAATGCCGAT :: -0.393
3. GTTACAGGGTCAGCTAGAGGCCAGAGTATGGAAA :: 4.27
4. CCGACTGGGGCAGAAATGTTACCATACCATCCGG :: 0.0353

Now look at this one.
Data request: Form: Entry = CGTCCAAGGTCAGAGAGGTCAGTGAGTGCCGAGT | System = RARb:RXRa (NR concentration 270 nM, RXRa partner concentration 90 nM) | PBM binding z-score = ____
Data returned: 5.37

* * *

The sequences listed here are annotated with their PBM binding z-score.
Test system: PPARg:RXRa 270nM:90nM, anti-RXR (NR concentration 270 nM, RXRa partner concentration 90 nM)
method: PBM binding z-score (relative to random genomic background probes); higher = stronger binding; sequences stand for … in GC…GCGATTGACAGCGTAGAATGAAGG
Give your answer as a number; write no unit.

Sample answers from the record:
1. TTACCAAGGTGAGCTGAGGTCGCTGATCCAACTC :: 1
2. CCTACTGGGCCAAAAAGGTCAATGATGCCGATAA :: 3.84
3. AGTCAGAGTTCACTAGGTAACGTAAGATTCAGCT :: 5.35

Now look at this one.
Data request: For ATCTCTAGGTAAAGATGGTTCAGTGAATGCAAAT , what is its reported PBM binding z-score?
Data returned: 0.607

* * *

Tested on: RARb:RXRa (NR concentration 270 nM, RXRa partner concentration 90 nM)
method: PBM binding z-score (relative to random genomic background probes); higher = stronger binding; sequences stand for … in GC…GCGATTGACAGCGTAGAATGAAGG
measurement.type: PBM binding z-score
Give your answer as a number; write no unit.

Sample answers from the record:
1. AATACAGGGTCATCGTAGCCCAGAGTACGCACAG :: 4.29
2. TAGCCTAGTTCATTGGGCCAGTATAGTACGCATC :: 1.17
3. CCTATTAGTTGACCATAAGGGCATCCGAAGCTCG :: 1.37
4. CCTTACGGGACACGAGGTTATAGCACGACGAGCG :: 1.11
5. CCGACTGGTGCAAGGTTACCATAACGCACAGCCA :: 0.894

Data request: For CGTCCAAAGTCAAGGTCAGTGAAAGAGACTCGAA , what is its reported PBM binding z-score?
Data returned: 3.62

Data request: For CCTACTGGGCCATTCCGAGGTCATTGATCATATG , what is its reported PBM binding z-score?
Data returned: 2.63

Data request: For CGAACTAGGTCAAGTACAGTGAATCTCCGCACGC , what is its reported PBM binding z-score?
Data returned: 4.19

Data request: For ATATGTAGGCTACATCCGGGTCATTCAGGCTATG , what is its reported PBM binding z-score?
Data returned: 1.27

Data request: For CCTCGGAGGACAGAAGGTCACAGCTGTCCGCTTT , what is its reported PBM binding z-score?
Data returned: 3.77

Data request: For CCTGCTAGCTCATGGTCAGCTAATCTACAGTATG , what is its reported PBM binding z-score?
Data returned: -0.0065

Data request: For CCTTACGGGTCACTCCAGGATATAGCATCGGAGT , what is its reported PBM binding z-score?
Data returned: 3.4

Data request: For ACGGACAGGTGAGTGAAGGTAACTCAGCTGGACG , what is its reported PBM binding z-score?
Data returned: 0.913

Data request: For GCTGCTAGGTCAGGTTGGTCAGCAAACGGGTACG , what is its reported PBM binding z-score?
Data returned: 3.25

* * *

The sequences listed here are annotated with their PBM binding z-score.
Test system: LXRa homodimer (NR concentration 270 nM)
method: PBM binding z-score (relative to random genomic background probes); higher = stronger binding; sequences stand for … in GC…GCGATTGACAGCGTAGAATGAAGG
Give your answer as a number; write no unit.

Sample answers from the record:
1. TCATATAGGTAAACAGGTGAAAGTCCGTAAGTTA :: 0.337
2. GATACAGGGTCAGCTAGAGGCCATAGTATGGAAA :: -0.128
3. GTAGCAAGGTGAATAGGTCGTTGATGAGTAGGCG :: -0.884
4. TTACCAAGGTGAGGTGAGGTCGTTGATCCAACTC :: -0.251
5. TGAATGGGGTTATAAGATCAGGGAACGTTGCAAA :: 0.471
6. CAAACTAGGTCAAGAGGTCAAGGTCCGCTTCCCG :: 4.56
7. CCTATCAGTTGACCATAAGGGCAACCGAAGCTCG :: 0.218
8. CGTACTGGGCCAAAAAGGTCATTGATGCCGATAA :: 2.93

Data request: Form: Entry = TAGCCTAGGTCAGATCGGGCCAGTGTACGCTATA | System = LXRa homodimer (NR concentration 270 nM) | PBM binding z-score = ____
Data returned: -0.454

Data request: Form: Entry = AGAACGAGGGCAATGAGTTGAAAGCACGGGTGGC | System = LXRa homodimer (NR concentration 270 nM) | PBM binding z-score = ____
Data returned: -0.528

Data request: Form: Entry = TCATATGGGTAAATGCTAGGTGAAAGTCCGATCT | System = LXRa homodimer (NR concentration 270 nM) | PBM binding z-score = ____
Data returned: 0.0774

Data request: Form: Entry = AGTCAAAGTTCATCTAGGTAACGTAAGATATGCT | System = LXRa homodimer (NR concentration 270 nM) | PBM binding z-score = ____
Data returned: 5.07

Data request: Form: Entry = AGAAGGAGGTTAAGATCAGGGAAACAGAATACAT | System = LXRa homodimer (NR concentration 270 nM) | PBM binding z-score = ____
Data returned: 0.422

* * *

System: RARb:RXRa (NR concentration 270 nM, RXRa partner concentration 90 nM)
method: PBM binding z-score (relative to random genomic background probes); higher = stronger binding; sequences stand for … in GC…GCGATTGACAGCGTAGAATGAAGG
We'd kindly ask you to apply these PBM binding z-score classes: class A: < 1; class B: ≥ 1 and < 4; class C: ≥ 4

Please review the following examples before continuing.
1) GGAACGAGGGCAAGGTGATAGCAGAGTTTGATGG :: class B
2) TCATATAGGTAAAGGTGAAGGTCGAACGATATGA :: class B
3) TCACCAAGGTGAAGGTCGTTGATCCCTCTGTAGA :: class B
4) CGTCAAAGTTCCAGGTAACGTAACAGAAAGCAGC :: class A
5) AGTCAAAGTTCAGGACGAGGTAACGTAGAGCACG :: class C

Data request: Place this sequence in its band: CCTAGCAGGGCAATCTGGGTCACTCAAGGCTTGA
Data returned: class B

Data request: Place this sequence in its band: TCGAGCAGGTTAGTCGGGGCATTCAGCCAACATA
Data returned: class A

Data request: Place this sequence in its band: TCTCGGAGGACAGGAAGGTCAGAGCTTTCCAGAG
Data returned: class B

Data request: Place this sequence in its band: ACTAGCAGGCCGAGGGTCACTCAAGATTAGTCCG
Data returned: class B

Data request: Place this sequence in its band: GCAGACAGGTGAAACGCAGGTCACTCAGGGTGGC
Data returned: class B

Data request: Place this sequence in its band: TTTCAAAGTTCAAAGGTAACGTAAGTATCCACAC
Data returned: class C

Data request: Place this sequence in its band: CAAACTAGGTCACGAAAGGTTAAAGTCGAATGAC
Data returned: class C
